src = ChEMBL document CHEMBL1138218

- System: Jurkat
- method: Growth inhibition of Jurkat cell
- Format: functional
- experimental-conditions: Homo sapiens

{"columns": ["molecule", "value-unit", "value-operator", "GI50"],
 "data": [
  ["CCOC(=O)C1=C(N)Oc2ccccc2C1C(C#N)C(=O)OCC (stereo not given)", "µM", "=", 66],
  ["COc1cccc2c1C(=O)c1c(O)c3c(c(O)c1C2=O)C[C@@](O)(C(=O)CO)C[C@@H]3O[C@H]1C[C@H](N)[C@H](O)[C@H](C)O1 [DOXORUBICIN]", "µM", "=", 0.21],
  ["CCOC(=O)C1=C(N)Oc2ccc(-c3ccccc3)cc2C1C(C#N)C(=O)OCC (stereo not given)", "µM", "=", 3.9],
  ["Nc1nc2[nH]cnc2c(=S)[nH]1 [THIOGUANINE]", "µM", "=", 13],
  ["CCOC(=O)C1=C(N)Oc2ccc(C3CCCC3)cc2C1C(C#N)C(=O)OCC (stereo not given)", "µM", "=", 3.5],
  ["CCOC(=O)C1=C(N)Oc2ccc(CC)cc2C1C(C#N)C(=O)OCC (stereo not given)", "µM", "=", 13],
  ["CCCc1ccc2c(c1)C(C(C#N)C(=O)OCC)C(C(=O)OCC)=C(N)O2 (stereo not given)", "µM", "=", 5.2],
  ["CC(=O)O[C@H]1C(=O)[C@@]2(C)[C@H]([C@H](OC(=O)c3ccccc3)[C@]3(O)C[C@H](OC(=O)[C@H](O)[C@@H](NC(=O)c4ccccc4)c4ccccc4)C(C)=C1C3(C)C)[C@]1(OC(C)=O)CO[C@@H]1C[C@@H]2O [PACLITAXEL]", "µM", "<", 0.01],
  ["CCOC(=O)C1=C(N)Oc2ccc(C)cc2C1C(C#N)C(=O)OCC (stereo not given)", "µM", "=", 29],
  ["CCOC(=O)C1=C(N)Oc2ccc(-c3ccc(C(C)(C)C)cc3)cc2C1C(C#N)C(=O)OCC (stereo not given)", "µM", "=", 0.8]
]}

---

- target-system: Bcl-2-like protein 1 (Homo sapiens, UniProt Q07817)
- Sequence (Q07817 whole entry): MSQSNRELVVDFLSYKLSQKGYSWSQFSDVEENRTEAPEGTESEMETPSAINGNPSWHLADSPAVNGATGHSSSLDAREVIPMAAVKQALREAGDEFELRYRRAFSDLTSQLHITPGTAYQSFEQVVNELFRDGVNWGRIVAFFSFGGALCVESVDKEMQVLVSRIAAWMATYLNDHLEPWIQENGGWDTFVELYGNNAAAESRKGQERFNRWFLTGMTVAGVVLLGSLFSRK
- method: Growth inhibition of Jurkat cell overexpressing BclXL
- Type: functional, cell-based
# Lookup of reported GI50 keyed by entry

{"columns": ["compound", "target-system", "GI50"],
 "data": [
  ["CCCc1ccc2c(c1)C(C(C#N)C(=O)OCC)C(C(=O)OCC)=C(N)O2 (stereo not drawn)", "Bcl-2-like protein 1 (Homo sapiens, UniProt Q07817)", "6.3 µM"],
  ["CCOC(=O)C1=C(N)Oc2ccccc2C1C(C#N)C(=O)OCC (stereo not drawn)", "Bcl-2-like protein 1 (Homo sapiens, UniProt Q07817)", "99 µM"],
  ["Nc1nc2[nH]cnc2c(=S)[nH]1 [THIOGUANINE]", "Bcl-2-like protein 1 (Homo sapiens, UniProt Q07817)", "183 µM"]
]}

---

The molecules listed here are annotated with their RatioGI50.
- method: Ratio of GI50 for Jurkat cells overexpressing Bcl2 or BclXL to normal Jurkat cells
- Assay type: functional, Homo sapiens

{"columns": ["molecule", "RatioGI50"],
 "data": [
  ["CCOC(=O)C1=C(N)Oc2ccc(-c3ccc(C(C)(C)C)cc3)cc2C1C(C#N)C(=O)OCC (centres undefined)", "<1.24"],
  ["CC(=O)O[C@H]1C(=O)[C@@]2(C)[C@H]([C@H](OC(=O)c3ccccc3)[C@]3(O)C[C@H](OC(=O)[C@H](O)[C@@H](NC(=O)c4ccccc4)c4ccccc4)C(C)=C1C3(C)C)[C@]1(OC(C)=O)CO[C@@H]1C[C@@H]2O", ">100"],
  ["CCCc1ccc2c(c1)C(C(C#N)C(=O)OCC)C(C(=O)OCC)=C(N)O2 (centres undefined)", "<1.21"],
  ["Nc1nc2[nH]cnc2c(=S)[nH]1", ">11"]
]}

---

Recorded RatioGI50 by entry
- method: Ratio of GI50 for Jurkat cells overexpressing Bcl2 or BclXL to normal Jurkat cells
- Format: functional, Homo sapiens

{"columns": ["molecule", "RatioGI50"],
 "data": [
  ["CCOC(=O)C1=C(N)Oc2ccc(-c3ccccc3)cc2C1C(C#N)C(=O)OCC (stereo unspecified)", "<1.07"],
  ["CCOC(=O)C1=C(N)Oc2ccc(C3CCCC3)cc2C1C(C#N)C(=O)OCC (stereo unspecified)", "<1.1"],
  ["CCOC(=O)C1=C(N)Oc2ccc(CC)cc2C1C(C#N)C(=O)OCC (stereo unspecified)", "<1"],
  ["COc1cccc2c1C(=O)c1c(O)c3c(c(O)c1C2=O)C[C@@](O)(C(=O)CO)C[C@@H]3O[C@H]1C[C@H](N)[C@H](O)[C@H](C)O1", ">100"],
  ["CCOC(=O)C1=C(N)Oc2ccccc2C1C(C#N)C(=O)OCC (stereo unspecified)", "<1.5"],
  ["CCOC(=O)C1=C(N)Oc2ccc(C)cc2C1C(C#N)C(=O)OCC (stereo unspecified)", "<1.41"]
]}

---

Property: log10 GI50; scope: individual compounds
- Test system: NCI-H460
- method: Growth inhibition of NCI-H460 cell
- Type: functional
- experimental-conditions: Homo sapiens
reported-endpoint: log10 GI50 (log10 of the value in µM)

{"columns": ["compound", "measured-value"],
 "data": [
  ["CCOC(=O)C1=C(N)Oc2ccc(C3CCCC3)cc2C1C(C#N)C(=O)OCC (configuration not stated)", 1.04],
  ["CCCc1ccc2c(c1)C(C(C#N)C(=O)OCC)C(C(=O)OCC)=C(N)O2 (configuration not stated)", 1.40],
  ["CCOC(=O)C1=C(N)Oc2ccc(-c3ccc(C(C)(C)C)cc3)cc2C1C(C#N)C(=O)OCC (configuration not stated)", -0.80],
  ["CCOC(=O)C1=C(N)Oc2ccc(C)cc2C1C(C#N)C(=O)OCC (configuration not stated)", 2.01],
  ["CCOC(=O)C1=C(N)Oc2ccccc2C1C(C#N)C(=O)OCC (configuration not stated)", 2.20],
  ["CCOC(=O)C1=C(N)Oc2ccc(CC)cc2C1C(C#N)C(=O)OCC (configuration not stated)", 1.90],
  ["CCOC(=O)C1=C(N)Oc2ccc(-c3ccccc3)cc2C1C(C#N)C(=O)OCC (configuration not stated)", 1.20]
]}

---

Each item that follows carries a reported Ki.
Sequence of the target: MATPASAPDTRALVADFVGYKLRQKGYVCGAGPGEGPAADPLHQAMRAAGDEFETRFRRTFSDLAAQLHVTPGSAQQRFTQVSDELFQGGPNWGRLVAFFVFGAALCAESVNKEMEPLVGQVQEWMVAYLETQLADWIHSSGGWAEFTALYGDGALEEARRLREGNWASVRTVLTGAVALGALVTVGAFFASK
reported-endpoint: Ki (µM)

{"columns": ["compound", "value-unit", "measured-value"],
 "data": [
  ["CCOC(=O)C1=C(N)Oc2ccc(CC)cc2C1C(C#N)C(=O)OCC (stereo not drawn)", "µM", 121],
  ["CCOC(=O)C1=C(N)Oc2ccc(-c3ccccc3)cc2C1C(C#N)C(=O)OCC (stereo not drawn)", "µM", 41.2],
  ["CCCc1ccc2c(c1)C(C(C#N)C(=O)OCC)C(C(=O)OCC)=C(N)O2 (stereo not drawn)", "µM", 56.7]
]}

---

Quick record of Ki values for Bcl-2-like protein 1 (Homo sapiens, UniProt Q07817).

{"columns": ["compound", "Ki"],
 "data": [
  ["CCOC(=O)C1=C(N)Oc2ccc(-c3ccc(C(C)(C)C)cc3)cc2C1C(C#N)C(=O)OCC (centres undefined)", "21.7 µM"],
  ["CCOC(=O)C1=C(N)Oc2ccc(CC)cc2C1C(C#N)C(=O)OCC (centres undefined)", "135 µM"],
  ["CCOC(=O)C1=C(N)Oc2ccc(C)cc2C1C(C#N)C(=O)OCC (centres undefined)", "191 µM"],
  ["CCOC(=O)C1=C(N)Oc2ccc(C3CCCC3)cc2C1C(C#N)C(=O)OCC (centres undefined)", "36.5 µM"]
]}

---

Ki values by entry
- target-system: Apoptosis regulator Bcl-2 (Homo sapiens, UniProt P10415)
- Sequence (P10415 whole entry): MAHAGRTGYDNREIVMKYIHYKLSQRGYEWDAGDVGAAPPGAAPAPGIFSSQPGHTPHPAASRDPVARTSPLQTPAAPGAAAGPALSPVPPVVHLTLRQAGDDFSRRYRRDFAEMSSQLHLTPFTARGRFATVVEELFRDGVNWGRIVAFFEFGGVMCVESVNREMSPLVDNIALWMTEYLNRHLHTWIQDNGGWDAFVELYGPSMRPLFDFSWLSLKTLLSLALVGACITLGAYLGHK
reported-endpoint: Ki (µM)

{"columns": ["molecule", "target-system", "value-unit", "measured-value"],
 "data": [
  ["CCOC(=O)C1=C(N)Oc2ccccc2C1C(C#N)C(=O)OCC (stereo not drawn)", "Apoptosis regulator Bcl-2 (Homo sapiens, UniProt P10415)", "µM", 531],
  ["CCOC(=O)C1=C(N)Oc2ccc(C)cc2C1C(C#N)C(=O)OCC (stereo not drawn)", "Apoptosis regulator Bcl-2 (Homo sapiens, UniProt P10415)", "µM", 309],
  ["CCCc1ccc2c(c1)C(C(C#N)C(=O)OCC)C(C(=O)OCC)=C(N)O2 (stereo not drawn)", "Apoptosis regulator Bcl-2 (Homo sapiens, UniProt P10415)", "µM", 128]
]}
